All figures here come from paper PMC9418647.

- tested_system: OATP1B3 (Homo sapiens)
- Sequence (Q9NPD5 1-702): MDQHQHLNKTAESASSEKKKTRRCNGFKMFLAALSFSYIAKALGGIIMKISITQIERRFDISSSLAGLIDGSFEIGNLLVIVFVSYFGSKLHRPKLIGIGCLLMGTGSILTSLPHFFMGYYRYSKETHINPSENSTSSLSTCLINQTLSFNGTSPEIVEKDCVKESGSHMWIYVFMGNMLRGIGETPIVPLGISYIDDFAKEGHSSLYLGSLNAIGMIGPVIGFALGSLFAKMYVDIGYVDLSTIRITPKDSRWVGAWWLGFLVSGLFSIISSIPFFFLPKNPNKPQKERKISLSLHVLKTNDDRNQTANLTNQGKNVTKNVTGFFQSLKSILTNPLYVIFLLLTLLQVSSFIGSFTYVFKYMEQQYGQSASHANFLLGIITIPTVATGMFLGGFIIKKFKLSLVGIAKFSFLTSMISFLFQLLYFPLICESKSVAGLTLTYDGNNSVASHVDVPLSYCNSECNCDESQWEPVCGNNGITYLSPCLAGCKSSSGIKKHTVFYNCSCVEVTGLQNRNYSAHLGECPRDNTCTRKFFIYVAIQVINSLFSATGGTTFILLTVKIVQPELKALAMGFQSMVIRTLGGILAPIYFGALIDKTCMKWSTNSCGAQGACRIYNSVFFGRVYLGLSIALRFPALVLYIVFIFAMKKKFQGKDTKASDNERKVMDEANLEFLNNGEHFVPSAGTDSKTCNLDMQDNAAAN
- method_notes: Uptake assay for OATP1B3 inhibition in HEK-OATP1B3 cells
reported_endpoint: IC50

input: Recorded IC50 of CCOc1ncc(C)c2c1[C@H](c1ccc(C#N)cc1OC)C(C(N)=O)=C(C)N2 , please.
output: > 10 µM
